For each record, write down the corresponding fractional inhibitory concentration index (FICI).
Target: ATP-dependent translocase ABCB1 (Homo sapiens, UniProt P08183)
Sequence (P08183 whole entry): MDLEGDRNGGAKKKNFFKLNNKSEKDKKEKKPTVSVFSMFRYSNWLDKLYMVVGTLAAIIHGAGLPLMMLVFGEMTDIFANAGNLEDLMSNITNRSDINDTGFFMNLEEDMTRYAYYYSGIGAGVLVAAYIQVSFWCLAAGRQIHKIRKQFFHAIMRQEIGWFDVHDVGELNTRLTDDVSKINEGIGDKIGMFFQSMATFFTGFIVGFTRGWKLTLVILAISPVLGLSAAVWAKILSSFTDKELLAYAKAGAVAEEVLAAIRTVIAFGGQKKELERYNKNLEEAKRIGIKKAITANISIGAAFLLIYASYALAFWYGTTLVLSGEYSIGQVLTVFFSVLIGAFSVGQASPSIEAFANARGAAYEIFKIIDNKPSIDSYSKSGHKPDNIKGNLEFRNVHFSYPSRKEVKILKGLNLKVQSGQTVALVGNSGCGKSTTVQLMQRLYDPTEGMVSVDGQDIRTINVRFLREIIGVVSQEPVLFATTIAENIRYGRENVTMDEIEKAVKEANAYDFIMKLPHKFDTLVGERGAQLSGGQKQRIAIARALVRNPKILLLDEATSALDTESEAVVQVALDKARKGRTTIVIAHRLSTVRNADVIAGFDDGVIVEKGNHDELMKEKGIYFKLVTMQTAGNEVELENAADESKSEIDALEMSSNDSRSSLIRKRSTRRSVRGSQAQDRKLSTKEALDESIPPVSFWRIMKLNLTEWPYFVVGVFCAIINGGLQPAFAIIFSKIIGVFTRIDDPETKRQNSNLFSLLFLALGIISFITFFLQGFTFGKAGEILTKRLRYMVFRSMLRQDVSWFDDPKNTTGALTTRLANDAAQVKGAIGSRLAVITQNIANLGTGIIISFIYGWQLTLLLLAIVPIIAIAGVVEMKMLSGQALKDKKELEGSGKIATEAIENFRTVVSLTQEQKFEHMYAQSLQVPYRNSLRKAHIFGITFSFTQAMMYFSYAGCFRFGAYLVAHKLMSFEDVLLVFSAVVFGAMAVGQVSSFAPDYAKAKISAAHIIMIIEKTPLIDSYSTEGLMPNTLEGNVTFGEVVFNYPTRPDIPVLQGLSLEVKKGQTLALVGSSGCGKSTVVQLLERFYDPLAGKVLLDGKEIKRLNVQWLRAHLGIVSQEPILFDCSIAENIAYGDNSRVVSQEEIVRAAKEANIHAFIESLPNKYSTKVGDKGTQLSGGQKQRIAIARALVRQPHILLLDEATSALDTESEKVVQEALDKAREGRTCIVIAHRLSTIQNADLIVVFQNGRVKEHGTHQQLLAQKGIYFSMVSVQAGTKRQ
Assay: Inhibition of human ABCB1 expressed in mouse L5178 cells assessed as 50% inhibition of cell proliferation at compound-doxorubicin ratio of 81.5:1 after 48 hrs by MTT assay
Format: cell-based
Settings: l5178, 48 h
One number for each entry.

* CC(C)(O)CC[C@@H](O)[C@](C)(O)[C@H]1CC[C@@]2(O)C3=CC(=O)[C@@H]4C[C@@H](O)[C@@H](O)[C@@H](O)[C@]4(C)[C@H]3CC[C@]12C | 0.8

For each of the compounds below, state fractional inhibitory concentration index (FICI).
1. CC(C)(O)CC[C@@H](O)[C@](C)(O)[C@H]1CC[C@@]2(O)C3=CC(=O)[C@@]4(O)C[C@@H](O)CC[C@]4(C)[C@H]3CC[C@]12C
2. CC(C)CC[C@@H](O)[C@](C)(O)[C@H]1CC[C@@]2(O)C3=CC(=O)[C@@H]4C[C@@H](O)[C@@H](O)C[C@]4(C)[C@H]3CC[C@]12C
3. CC(C)(O)CC[C@H]1OC(C)(C)O[C@]1(C)[C@H]1CC[C@@]2(O)C3=CC(=O)[C@H]4C[C@@H](O)CC[C@]4(C)[C@H]3CC[C@]12C
4. CC(C)(O)CC[C@@H](O)[C@](C)(O)[C@H]1CC[C@@]2(O)C3=CC(=O)[C@@H]4C[C@@H](O)[C@@H](O)C[C@]4(C)C3=CC[C@]12C

Response:
1. 0.78
2. 1.41
3. 1.28
4. 2.66

###

Assignment: determine reported Ratio for the given compounds.
Target: UniProtKB P08183
Test: Inhibition of human ABCB1 pump expressed in mouse L5178 cells assessed as fluorescence activity ratio at 20 uM for 10 mins by flow cytometry relative to control
Assay type: cell-based
Conditions: l5178, 10 min
Answers are plain numbers.

* C[C@H]([C@H](O)CCC(C)(C)O)[C@H]1CC[C@@]2(O)C3=CC(=O)[C@@H]4C[C@@H](O)CC[C@]4(C)[C@H]3CC[C@]12C | 0.94
* CC(C)CC[C@@H](O)[C@](C)(O)[C@H]1CC[C@@]2(O)C3=CC(=O)[C@@H]4C[C@@H](O)[C@@H](O)C[C@]4(C)C3=CC[C@]12C [DACRYHAINANSTERONE] | 1.07
* CC(C)CC[C@@H](O)[C@](C)(O)[C@H]1CC[C@@]2(O)C3=CC(=O)[C@@H]4C[C@@H](O)[C@@H](O)C[C@]4(C)[C@H]3CC[C@]12C [PONASTERONE A] | 1.26
* CC(C)(O)CC[C@H]1OC(C)(C)O[C@]1(C)[C@H]1CC[C@@]2(O)C3=CC(=O)[C@@H]4C[C@@H](O)[C@H]5OC(C)(C)O[C@H]5[C@]4(C)[C@H]3CC[C@]12C | 2.43

Next, consider the following compound.
Request: Give a short answer stating reported Ratio for C=C(CCCC(C)(C)O)[C@H]1CC[C@@]2(O)C3=CC(=O)[C@@H]4C[C@@H](O)[C@@H](O)C[C@]4(C)[C@H]3CC[C@]12C .
Response: 0.88

###

Target: ATP-dependent translocase ABCB1 (Homo sapiens, UniProt P08183)
Test: Inhibition of human ABCB1 expressed in mouse L5178 cells assessed as 75% inhibition of cell proliferation at compound-doxorubicin ratio of 20.4:1 after 48 hrs by MTT assay
Format: cell-based
Details: l5178, 48 h
RESULT TYPE: fractional inhibitory concentration index (FICI)
Give bare numbers.

Sample answers from the record:
- CC(C)CC[C@H](O)[C@](C)(O)[C@H]1CC[C@@]2(O)C3=CC(=O)[C@@H]4C[C@@H](O)[C@@H](O)C[C@]4(C)[C@H]3[C@H](O)C[C@]12C: 1.66
- CC(C)(O)CC[C@H]1OC(C)(C)O[C@]1(C)[C@H]1CC[C@@]2(O)C3=CC(=O)[C@@H]4C[C@@H](O)[C@H]5OC(C)(C)O[C@H]5[C@]4(C)[C@H]3CC[C@]12C: 0.42
- CC(=O)O[C@H]1CC[C@@]2(C)[C@@H](C1)C(=O)C=C1[C@@H]2CC[C@]2(C)[C@@H]([C@H](C)[C@@H](CCC(C)(C)O)OC(C)=O)CC[C@@]12O: 0.86
- CC(=O)O[C@H]1C[C@@]2(C)[C@@H](C[C@H]1OC(C)=O)C(=O)C=C1[C@@H]2CC[C@]2(C)[C@@H]([C@@](C)(O)[C@@H](CCC(C)(C)OC(C)=O)OC(C)=O)CC[C@@]12O: 0.29
- CC(C)(O)CC[C@@H](O)[C@](C)(O)[C@H]1CC[C@@]2(O)C3=CC(=O)[C@@H]4C[C@@H](O)[C@@H](O)C[C@]4(C)[C@H]3CC[C@]12C [20-HYDROXYECDYSONE]: 2.02
- CC(C)(O)CC[C@H]1OC(C)(C)O[C@]1(C)[C@H]1CC[C@@]2(O)C3=CC(=O)[C@@H]4C[C@@H](O)[C@@H](O)C[C@]4(C)[C@H]3CC[C@]12C: 0.54

Working through the 2 compounds below one at a time, give fractional inhibitory concentration index (FICI) for each.
1. CC(=O)O[C@H]1CC[C@@]2(C)[C@@H](C1)C(=O)C=C1[C@@H]2CC[C@]2(C)[C@@H]([C@H](C)[C@@H](CCC(C)(C)OC(C)=O)OC(C)=O)CC[C@@]12O
2. CC(C)(O)CC[C@H]1OC(C)(C)O[C@]1(C)[C@H]1CC[C@@]2(O)C3=CC(=O)[C@@H]4C[C@@H](O)CC[C@]4(C)[C@H]3CC[C@]12C

Response:
1. 0.23
2. 0.28

From: ChEMBL document CHEMBL2086273
